Source: paper PMC7819943

binding signal: recorded values
Target: OsWRKY34 (Oryza sativa, UniProt Q0JBA9 1-250)
Sequence (Q0JBA9 entry or part of it): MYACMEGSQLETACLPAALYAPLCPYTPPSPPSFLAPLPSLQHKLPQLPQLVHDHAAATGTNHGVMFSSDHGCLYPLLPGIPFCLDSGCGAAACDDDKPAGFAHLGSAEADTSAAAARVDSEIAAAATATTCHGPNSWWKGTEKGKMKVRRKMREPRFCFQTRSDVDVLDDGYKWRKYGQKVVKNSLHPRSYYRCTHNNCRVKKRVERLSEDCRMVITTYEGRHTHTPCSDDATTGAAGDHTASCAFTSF
Test: protein-binding microarray (RPBM); PBS, 2% BSA, 51.3 ng/ul salmon testes DNA, 50 uM zinc acetate, 200 nM TF, 25 C, 1 h; high values mean tight binding
Conditions: protein: recombinant; tags: N-terminal polyhistidine and DsRed monomer fusion (pET32a); label: CyDye5-dUTP incorporated in the synthesized complementary strand; 3' TTTTT single-stranded linker to array surface; dsDNA, one strand shown
Over roughly 68,000 sequences, “fluorescence intensity (a.u.)” has its median near 9,100; the highest 2% begin near 16,000. The sample as a whole holds a higher share of the highest values than the screen did.

> print(dat)
                        biopolymer.sequence                 reported.measurement
1  TTTGCTCCACACCACACAACACACATTGTACGGCGTTGCTCGGAGTCACCTAGTGCAG   8210 fluorescence intensity (a.u.)
2  ACTGCCTTACCTGTTCATCTTCCAAACTGATTTGGTTTGTCGGAGTCACCTAGTGCAG   9370 fluorescence intensity (a.u.)
3  CATTATCGTCGTCGTCGTCGTCGTAGTCATGTCGTGGGGCCGGAGTCACCTAGTGCAG   8180 fluorescence intensity (a.u.)
4  TCCTGTGGTACCCCTGTCGCCGAATCTACGCATCTGCCAACGGAGTCACCTAGTGCAG   8140 fluorescence intensity (a.u.)
5  CTGCCGAAGCAACGGATCTGAATCTACGTACCGAGCTTGTCGGAGTCACCTAGTGCAG  64600 fluorescence intensity (a.u.)

Lab note: next sequence to report on.
Lookup: Any idea what binding signal was measured for ATTGGGTTGATATTATATTGGCAGGGCCAGAAAGTTTTACCGGAGTCACCTAGTGCAG ?
Found: 8580 fluorescence intensity (a.u.)

---

Biological target: OsWRKY34 (Oryza sativa, UniProt Q0JBA9 1-250)
Test: protein-binding microarray (RPBM); PBS, 2% BSA, 51.3 ng/ul salmon testes DNA, 50 uM zinc acetate, 200 nM TF, 25 C, 1 h; high values mean tight binding
Settings: protein: recombinant; tags: N-terminal polyhistidine and DsRed monomer fusion (pET32a); label: CyDye5-dUTP incorporated in the synthesized complementary strand; 3' TTTTT single-stranded linker to array surface; dsDNA, one strand shown
Whole data set: some 68,000 sequences, median “fluorescence intensity (a.u.)” near 9,100, cut for the highest 2% near 16,000. Only a selection was taken, and the highest values are over-represented in it overall.
Listing of recorded binding signal by entry.

Reference set (4 entries):
> print(dat)
                        biopolymer.sequence                 reported.measurement
1  ATGCCATTTTTCCCGTTTGTTGCAATTGCAAAACATTTTTCGGAGTCACCTAGTGCAG   8580 fluorescence intensity (a.u.)
2  CTATAAATACACGACGTCTCTCCGCTGGCTTACACACAACCGGAGTCACCTAGTGCAG  10100 fluorescence intensity (a.u.)
3  ACTTGTTTTACGTTCGGCTAATTAGCTGTTTGACCGTTTCCGGAGTCACCTAGTGCAG  15300 fluorescence intensity (a.u.)
4  AGGCTCTATTGGTTTCTCCTCTGTACATACAGTAGTAGTCCGGAGTCACCTAGTGCAG   8640 fluorescence intensity (a.u.)

Lookup: # query: binding signal | item CGACTACTCGGCCGGCCACCTGCGCCGTCTCTACCCCGAGCGGAGTCACCTAGTGCAG | system: OsWRKY34 (Oryza sativa, UniProt Q0JBA9 1-250)
Found: 9320 fluorescence intensity (a.u.)

Lookup: Form field: binding signal recorded for TGCAATTCGTACTTTTTCCTACAATTAAACAGCTACATGTCGGAGTCACCTAGTGCAG with OsWRKY34 (Oryza sativa, UniProt Q0JBA9 1-250) (enter value)
Found: 9500 fluorescence intensity (a.u.)

Lookup: Hello, I am looking for reported binding signal with OsWRKY34 (Oryza sativa, UniProt Q0JBA9 1-250) for TACTGTTGCTGCTAGTTCACCATTTGCGCATTTCCTCTTCCGGAGTCACCTAGTGCAG . Could you help?
Found: 11700 fluorescence intensity (a.u.)

Lookup: Write down the reported binding signal of AAAACATGGTACAAATGCATACGCTCACACATGCACACTCCGGAGTCACCTAGTGCAG , test system: OsWRKY34 (Oryza sativa, UniProt Q0JBA9 1-250).
Found: 8300 fluorescence intensity (a.u.)

Lookup: Give recorded binding signal with OsWRKY34 (Oryza sativa, UniProt Q0JBA9 1-250) for the following sequence: TTTCTACACCCTGTAGATCCTTGGACCCACATGCAGACCACGGAGTCACCTAGTGCAG
Found: 8730 fluorescence intensity (a.u.)

Lookup: # query: binding signal | item GCTGTGTGTACATATTACTAGTACTACTTAATACGTGCTTCGGAGTCACCTAGTGCAG | system: OsWRKY34 (Oryza sativa, UniProt Q0JBA9 1-250)
Found: 11200 fluorescence intensity (a.u.)

Lookup: Identify the measured binding signal of AGAGCGGGTGGGAGGCGAAGTAGACAGGGGCGGGGCGCATCGGAGTCACCTAGTGCAG for OsWRKY34 (Oryza sativa, UniProt Q0JBA9 1-250).
Found: 15700 fluorescence intensity (a.u.)
